- Tested on: Enterococcus faecalis
- protocol_details: Antimicrobial activity against Enterococcus faecalis ES01 harboring erythromycin-resistance rRNA methylase B and vanB-type vancomycin-resistance locus assessed as inhibition of visible growth of bacteria incubated for 20 hrs by broth microdilution method
- Format: functional
parameter_measured: MIC (µg/mL)
Numeric only. Scale: µg/mL

compound="CC1(C)S[C@@H]2[C@H](NC(=O)[C@H](N)c3ccccc3)C(=O)N2[C@H]1C(=O)O [AMPICILLIN]" system="Enterococcus faecalis" reported_value=16
compound="CN[C@H](CC(C)C)C(=O)N[C@H]1C(=O)N[C@@H](CC(N)=O)C(=O)N[C@H]2C(=O)N[C@H]3C(=O)N[C@H](C(=O)N[C@H](C(=O)O)c4cc(O)cc(O)c4-c4cc3ccc4O)[C@H](O)c3ccc(c(Cl)c3)Oc3cc2cc(c3O[C@@H]2O[C@H](CO)[C@@H](O)[C@H](O)[C@H]2O[C@H]2C[C@](C)(N)[C@H](O)[C@H](C)O2)Oc2ccc(cc2Cl)[C@H]1O [VANCOMYCIN]" system="Enterococcus faecalis" reported_value=16
compound="CCCCCCc1ccc(-c2ccc(/C=C3\\CC(C)Cc4c3nc3ccc(OC)cc3c4C(=O)O)cn2)cc1 (racemic)" system="Enterococcus faecalis" reported_value=4

The compound identified as C[C@H]1c2cccc(O)c2C(=O)C2=C(O)[C@]3(O)C(=O)C(C(N)=O)=C(O)[C@@H](N(C)C)[C@@H]3[C@@H](O)[C@@H]21 [DOXYCYCLINE ANHYDROUS] registered its MIC at 2

====

- protocol_details: Metabolic stability in mouse liver microsomes assessed as half-life at 100 uM preincubated for 5 mins followed by NADPH addition and measured upto 60 mins by LC-MS/MS analysis
- Assay type: ADME, Microsome
- applied_conditions: time < 65 min
parameter_measured: half-life at 100 µM

The molecule identified as CC1C/C(=C\c2ccc(-c3ccc(Cl)c(C(F)(F)F)c3)s2)c2nc3ccccc3c(C(=O)O)c2C1 (racemic) registered its half-life at 100 µM at > 3.08 h

====

viability at 48 h, 8 times of MIC values for the compounds below.
- protocol_details: Cytotoxicity against human Caco-2 cells assessed as cell viability at 8 times of MIC incubated for 48 hrs by CCK8 assay (reference value: 99.54 %)
- Assay type: toxicity, cell-based
- applied_conditions: read-out: Activity
Numeric only. Scale: %

Examples from the recorded data:
compound="COc1ccc2nc3c(c(C(=O)O)c2c1)CC(C)C/C3=C\\c1cccc(-c2ccc(Cl)c(C(F)(F)F)c2)c1 (racemic)" parameter_measured="viability at 48 h, 8 times of MIC" display_unit=% reported_value=36.6
compound="CCCCCCc1ccc(-c2ccc(/C=C3\\CC(C)Cc4c3nc3ccc(OC)cc3c4C(=O)O)cn2)cc1 (racemic)" parameter_measured="viability at 48 h, 8 times of MIC" display_unit=% reported_value=17.8

The compound identified as CC1C/C(=C\c2ccc(-c3ccc(Cl)c(C(F)(F)F)c3)s2)c2nc3ccccc3c(C(=O)O)c2C1 (racemic) registered its viability at 48 h, 8 times of MIC at 72.8

====

viability at 48 h, 16 times of MIC values for the compounds below.
- protocol_details: Cytotoxicity against human Caco-2 cells assessed as cell viability at 16 times of MIC incubated for 48 hrs by CCK8 assay (reference value: 99.54 %)
- Type: toxicity, cell-based
- applied_conditions: read-out: Activity
Kindly write the number and append the unit.

compound="COc1ccc2nc3c(c(C(=O)O)c2c1)CC(C)C/C3=C\\c1cccc(-c2ccc(Cl)c(C(F)(F)F)c2)c1 (racemic)" parameter_measured="viability at 48 h, 16 times of MIC" reported_value=5.84%
compound="CCCCCCc1ccc(-c2ccc(/C=C3\\CC(C)Cc4c3nc3ccc(OC)cc3c4C(=O)O)cn2)cc1 (racemic)" parameter_measured="viability at 48 h, 16 times of MIC" reported_value=1.44%

Now for another entry.
The compound identified as CC1C/C(=C\c2ccc(-c3ccc(Cl)c(C(F)(F)F)c3)s2)c2nc3ccccc3c(C(=O)O)c2C1 (racemic) registered its viability at 48 h, 16 times of MIC at 61.7%

Where these numbers come from: ChEMBL document CHEMBL6078677
